- Tested on: NCI-H460 lung
Lab note: assign the record to one of Y for active, N for inactive

COC(=O)[C@H](Cc1cn(C)cn1)NC(=O)[C@H](Cc1ccccc1)NC(=O)Nc1cc(C(F)(F)F)cc(C(F)(F)F)c1 = N
CS(=O)(=O)N(c1cc(-c2ccc3ncnc(Nc4ccc(F)c(Cl)c4)c3c2)cnc1Cl)S(C)(=O)=O = N

Hi, sorry to bother you, what did the test record for CN1CCN(CCCOc2cc(O)c3c(=O)cc(-c4ccccc4)oc3c2)CC1 ?
N

Hi, sorry to bother you, what did the test record for Cc1cc(O)c(-c2ccc([C@@H](C)CN(C)C)cc2)c2c1[nH]c(=O)c1sccc12 ?
Y
